The measurements presented in this section are drawn from paper PMC5515969.

Succinate-driven respiration State 4 values, listed per item
- System: isolated rat liver mitochondria
- test_description: Mitochondrial oxygen consumption (glutamate/malate or succinate driven, state 4 and state 3)
- Format: biochemical
- experimental_context: 30-fold Cmax; oxygen consumption, DMSO-treated = 1

- molecule: "COc1cc2nccc(Oc3ccc(NC(=O)C4(C(=O)Nc5ccc(F)cc5)CC4)cc3)c2cc1OC [Cabozantinib]"
  target_desc: "isolated rat liver mitochondria"
  Succinate-driven respiration State 4: 1.35
- molecule: "CC(C)(C)c1nc(-c2cccc(NS(=O)(=O)c3c(F)cccc3F)c2F)c(-c2ccnc(N)n2)s1"
  target_desc: "isolated rat liver mitochondria"
  Succinate-driven respiration State 4: 1.52
- molecule: "Cc1cc(Nc2ncc(Cl)c(Nc3ccccc3S(=O)(=O)C(C)C)n2)c(OC(C)C)cc1C1CCNCC1"
  target_desc: "isolated rat liver mitochondria"
  Succinate-driven respiration State 4: 0.70
- molecule: "COc1cc2nccc(Oc3ccc(NC(=O)NC4CC4)c(Cl)c3)c2cc1C(N)=O"
  target_desc: "isolated rat liver mitochondria"
  Succinate-driven respiration State 4: 0.94
- molecule: "N#CC[C@H](C1CCCC1)n1cc(-c2ncnc3[nH]ccc23)cn1"
  target_desc: "isolated rat liver mitochondria"
  Succinate-driven respiration State 4: 1.08

###

- target_desc: RCC II (Rattus norvegicus, UniProt P21913+Q641Z9+Q6PCT8+Q920L2)
- Construct: Submitochondrial particles were prepared by subjecting the intact mitochondria to three successive freeze–thaw cycles; from tissue; host or cells: rat liver mitochondria, used as submitochondrial particles
- Sequence (Q920L2 35-656): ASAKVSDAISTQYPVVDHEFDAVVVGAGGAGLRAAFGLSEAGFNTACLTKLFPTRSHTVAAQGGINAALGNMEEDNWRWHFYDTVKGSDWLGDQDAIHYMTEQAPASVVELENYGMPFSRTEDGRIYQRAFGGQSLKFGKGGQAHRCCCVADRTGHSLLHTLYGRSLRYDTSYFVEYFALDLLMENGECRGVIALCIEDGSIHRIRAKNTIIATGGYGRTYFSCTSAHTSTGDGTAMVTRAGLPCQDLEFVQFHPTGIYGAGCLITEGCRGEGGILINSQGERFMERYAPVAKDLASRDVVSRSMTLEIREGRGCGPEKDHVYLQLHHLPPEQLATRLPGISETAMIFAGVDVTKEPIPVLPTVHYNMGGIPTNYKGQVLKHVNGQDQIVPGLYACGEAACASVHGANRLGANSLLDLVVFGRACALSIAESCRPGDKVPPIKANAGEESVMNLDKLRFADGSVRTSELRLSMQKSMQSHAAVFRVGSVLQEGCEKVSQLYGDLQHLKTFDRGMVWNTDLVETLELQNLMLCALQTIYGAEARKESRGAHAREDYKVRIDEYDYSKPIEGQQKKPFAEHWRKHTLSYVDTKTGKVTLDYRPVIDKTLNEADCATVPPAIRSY
- Sequence (P21913 31-282): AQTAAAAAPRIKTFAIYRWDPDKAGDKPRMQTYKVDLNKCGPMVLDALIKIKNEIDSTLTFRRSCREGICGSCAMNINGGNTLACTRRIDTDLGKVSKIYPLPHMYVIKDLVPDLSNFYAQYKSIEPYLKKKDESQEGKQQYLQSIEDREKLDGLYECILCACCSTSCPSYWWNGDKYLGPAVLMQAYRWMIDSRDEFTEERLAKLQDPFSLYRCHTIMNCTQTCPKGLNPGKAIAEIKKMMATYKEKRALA
- Sequence (Q641Z9 1-169): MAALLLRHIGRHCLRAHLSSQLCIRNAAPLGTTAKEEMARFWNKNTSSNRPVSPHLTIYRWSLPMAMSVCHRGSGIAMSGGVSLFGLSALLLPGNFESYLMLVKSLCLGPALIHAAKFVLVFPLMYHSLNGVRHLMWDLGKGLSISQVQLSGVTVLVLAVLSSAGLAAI
- Sequence (Q6PCT8 57-159): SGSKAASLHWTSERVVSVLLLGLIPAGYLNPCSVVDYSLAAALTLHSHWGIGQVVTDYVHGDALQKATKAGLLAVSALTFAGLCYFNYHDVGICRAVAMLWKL
- test_description: RCC II activity in submitochondrial particles
- Type: biochemical
- Set-up: key: activity relative to DMSO-treated controls (control set as 1 = 100%)
- experimental_context: 20XCmax; DMSO treated samples set as 1
Entries and their RCC II at 20XCmax values follow.

- molecule: "CN(C)C/C=C/C(=O)Nc1cc2c(Nc3ccc(F)c(Cl)c3)ncnc2cc1O[C@H]1CCOC1 [afatinib dimaleate]"
  RCC II at 20XCmax: 0
- molecule: "COC(=O)c1ccc2c(c1)NC(=O)/C2=C(\\Nc1ccc(N(C)C(=O)CN2CCN(C)CC2)cc1)c1ccccc1 [Nintedanib]"
  RCC II at 20XCmax: 0
- molecule: "COc1cc2nccc(Oc3ccc(NC(=O)C4(C(=O)Nc5ccc(F)cc5)CC4)cc3)c2cc1OC [cabozantinib malate]"
  RCC II at 20XCmax: 0
- molecule: "CC[C@H](Nc1ncnc2[nH]cnc12)c1nc2cccc(F)c2c(=O)n1-c1ccccc1 [Idelalisib]"
  RCC II at 20XCmax: 0
- molecule: "CCc1cc2c(cc1N1CCC(N3CCOCC3)CC1)C(C)(C)c1[nH]c3cc(C#N)ccc3c1C2=O [Alectinib]"
  RCC II at 20XCmax: 0
- molecule: "COc1cc2nccc(Oc3ccc(NC(=O)NC4CC4)c(Cl)c3)c2cc1C(N)=O [Lenvatinib]"
  RCC II at 20XCmax: 0
- molecule: "O=C(c1ccc(F)c(F)c1Nc1ccc(I)cc1F)N1CC(O)([C@@H]2CCCCN2)C1 [Cobimetinib]"
  RCC II at 20XCmax: 0
- molecule: "CC(=O)Nc1cccc(-n2c(=O)n(C3CC3)c(=O)c3c(Nc4ccc(I)cc4F)n(C)c(=O)c(C)c32)c1 [Trametinib]"
  RCC II at 20XCmax: 0
- molecule: "Cc1ccc(C(=O)Nc2ccc(CN3CCN(C)CC3)c(C(F)(F)F)c2)cc1C#Cc1cnc2cccnn12 [Ponatinib]"
  RCC II at 20XCmax: 0
- molecule: "Cc1cc(Nc2ncc(Cl)c(Nc3ccccc3S(=O)(=O)C(C)C)n2)c(OC(C)C)cc1C1CCNCC1 [Ceritinib]"
  RCC II at 20XCmax: 0
- molecule: "CC(C)(C)c1nc(-c2cccc(NS(=O)(=O)c3c(F)cccc3F)c2F)c(-c2ccnc(N)n2)s1 [Dabrafenib]"
  RCC II at 20XCmax: 0
- molecule: "C=CC(=O)N1CCC[C@@H](n2nc(-c3ccc(Oc4ccccc4)cc3)c3c(N)ncnc32)C1 [Ibrutinib]"
  RCC II at 20XCmax: 0
- molecule: "CC(=O)c1c(C)c2cnc(Nc3ccc(N4CCNCC4)cn3)nc2n(C2CCCC2)c1=O.Cl [palbociclib hydrochloride]"
  RCC II at 20XCmax: 0
- molecule: "C=CC(=O)Nc1cc(Nc2nccc(-c3cn(C)c4ccccc34)n2)c(OC)cc1N(C)CCN(C)C.CS(=O)(=O)O [osimertinib mesylate]"
  RCC II at 20XCmax: 0
